D(2) dopamine receptor (Homo sapiens, UniProt P14416) data, read-out Ki
Sequence (P14416 whole entry): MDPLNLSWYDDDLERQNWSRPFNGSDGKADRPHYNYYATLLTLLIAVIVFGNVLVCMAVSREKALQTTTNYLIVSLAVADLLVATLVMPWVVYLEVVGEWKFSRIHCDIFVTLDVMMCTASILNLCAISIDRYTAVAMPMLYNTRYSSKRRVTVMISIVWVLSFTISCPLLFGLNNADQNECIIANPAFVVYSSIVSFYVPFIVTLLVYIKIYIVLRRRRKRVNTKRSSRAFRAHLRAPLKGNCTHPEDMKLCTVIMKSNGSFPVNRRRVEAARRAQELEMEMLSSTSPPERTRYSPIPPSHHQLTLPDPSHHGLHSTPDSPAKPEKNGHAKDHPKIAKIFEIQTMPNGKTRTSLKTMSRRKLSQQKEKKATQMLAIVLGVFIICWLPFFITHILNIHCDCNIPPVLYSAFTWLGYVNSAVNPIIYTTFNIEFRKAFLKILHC
Numbers only, in nM.

Consider the following illustrative entries.
>>> recorded_measurement("Fc1cccc2c1CC[C@@H](NCc1ccccc1)C2")
779
>>> recorded_measurement("CCCCN[C@@H]1CCc2c(F)cccc2C1")
254
>>> recorded_measurement("CCCN[C@@H]1CCc2c(F)cccc2C1")
167
>>> recorded_measurement("CCCN(Cc1ccccc1)[C@@H]1CCc2c(F)cccc2C1")
179
>>> recorded_measurement("CCCN(CCCCN1C(=O)CC2(CCCC2)CC1=O)[C@@H]1CCc2c(F)cccc2C1")
4.94
>>> recorded_measurement("N[C@@H]1CCc2c(F)cccc2C1")
585

The following molecules each have a reported value; give each one's Ki.
1. CCCN(CCC)[C@@H]1CCc2c(F)cccc2C1
2. O=C1CC2(CCCC2)CC(=O)N1CCCCN[C@@H]1CCc2c(F)cccc2C1
3. CCCCN(CCC)[C@@H]1CCc2c(F)cccc2C1
4. CCCN(C(C)C)[C@@H]1CCc2c(F)cccc2C1

1. 26
2. 37
3. 45.6
4. 1530
